Origin of values: patent US20240182561A1

Target: T1, mouse CACNG1 expressed on cells (mouse, UniProt O70578 1-223)
T1 sequence (looked up): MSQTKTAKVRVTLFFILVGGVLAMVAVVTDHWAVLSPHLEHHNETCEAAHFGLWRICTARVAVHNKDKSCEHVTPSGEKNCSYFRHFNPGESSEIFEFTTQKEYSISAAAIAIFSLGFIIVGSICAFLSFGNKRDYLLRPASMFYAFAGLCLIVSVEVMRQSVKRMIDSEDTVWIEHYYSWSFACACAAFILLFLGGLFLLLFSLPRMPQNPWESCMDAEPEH
Test: cell-based or functional assay
valueKind: % KILL, indirect cell killing, HEK293/mCACNG1 (%)
A number alone suffices; assume %.

Consider the following illustrative entries.
>>> assayvalue("H2aM31941N (antibody, mouse IgG1, kappa, V domains shown, Both names are treated as one molecule; also called H1M31941N; lot H1M31941N-L1) VH: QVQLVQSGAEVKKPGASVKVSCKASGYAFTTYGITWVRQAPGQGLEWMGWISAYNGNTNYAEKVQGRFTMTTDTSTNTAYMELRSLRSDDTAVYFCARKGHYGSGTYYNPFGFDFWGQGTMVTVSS VL: EIMLMQSPGTLSLSPGERATLSCRASQSVSSSYLAWYQQKPGQAPRLLIYGASSRATDIPDRFSGSGSGTDFTLTISRLEPEDFAVYFCQQYYGSPWTFGQGTKVEIKR")
4.9
>>> assayvalue("H2aM31944N (antibody, mouse IgG2a, kappa, V domains shown, mIgG2a; also called CACNG1 mIgG2a antibody) VH: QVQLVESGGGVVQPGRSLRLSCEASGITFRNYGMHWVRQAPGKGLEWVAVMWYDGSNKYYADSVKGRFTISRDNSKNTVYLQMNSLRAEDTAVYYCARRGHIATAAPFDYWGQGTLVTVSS VL: DIQMTQSPSSLSASVGDRVTISCRASQSISSYLNWYQQKPGKAPKVLMYAASSLQSGVPSRFSGSGSGTDFTLTISSLQPEDFATYYCQQSYSTPPITFGQGTRLEIKR")
4.3
>>> assayvalue("REGN7660 (antibody, human IgG4 S228P, kappa, V domains shown, hIgG4) VH: EVQLVESGGGLVQPGGSLKLSCTASGLTLSDSAMHWVRQASGKGLEWVGRIRNKANRYATEYAASVKGRFTISRDDSKNTAYLQMNSLKTEDTAVYYCTRNWKIFLFDYWGQGTLVTVSS VL: EIVLTQSPGTLTLSPGERATLSCRASQSVGSKYLAWFQQKRGQAPRLLIYGASSRTSGIPDRISGSGSGTDFTLTISRLEPEDFAVYYCQQYGSSPWTFGQGTKVEIKR")
92.3

Lab note: next binder to report on.
### Prompt Quick check: % KILL, indirect cell killing, HEK293/mCACNG1 of REGN9909 (antibody, mouse IgG2a, kappa, V domains shown, mIgG2a) VH: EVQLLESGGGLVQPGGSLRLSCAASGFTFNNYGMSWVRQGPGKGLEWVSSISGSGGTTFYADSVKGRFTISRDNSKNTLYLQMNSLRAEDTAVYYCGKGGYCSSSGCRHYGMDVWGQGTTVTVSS VL: QSVLTQPPSASGTPGQRVTISCSGSSSNIGNNYIYWYQRLPGTTPKLLIYRNNQRPSGVPDRFSGSKSGTSASLAISGLRSEDEADYYCAAWDDTLSGYVFGTGTKVTVLR ?
### Response 88.5
